test: Intrinsic clearance in Wistar Han rat at 0.1 mg/kg, iv by LC-MS/MS analysis; assay type: ADME, organism-based; conditions: in vivo
Label fulfilled when CL is at or above 2000 mL/min/kg; otherwise label not fulfilled.

Examples from the recorded data:
compound | discrete_label
F[C@@H]1CNCC[C@H]1c1cc2nc(Nc3cnn([C@@H]4CC4(F)F)c3Cl)ncc2cc1Cl | not fulfilled
FC1CN(C2COCC2F)CCC1c1cc2nc(Nc3cnn(C4CC4(F)F)c3Cl)ncc2cc1Cl (centres undefined) | fulfilled
FC1CN(C2COC2)CCC1c1cc2nc(Nc3cnn(C4CC4(F)F)c3Cl)ncc2cc1Cl (centres undefined) | not fulfilled

Q) State whether the measured CL reaches 2000 mL/min/kg, counting equality as reaching it, for FC(F)Cn1ncc(Nc2ncc3cc(Cl)c(C4CCN(C5COC5)CC4F)cc3n2)c1Cl (centres undefined)
A) not fulfilled

Q) Does the compound Cc1c(Nc2ncc3ccc(N4C(=O)OC[C@@H]4C)cc3n2)cnn1C1CCOCC1 have recorded CL that is 2000 mL/min/kg or more?
A) not fulfilled

Q) Has Clc1cc2cnc(Nc3cnn(C4CC4)c3Cl)nc2cc1C1CCN(C2COC2)CC1 a recorded CL greater than or equal to 2000 mL/min/kg?
A) not fulfilled

Q) Please indicate if the recorded CL for Cc1c(Nc2ncc3cccc(C4CC4)c3n2)cnn1C1CCOCC1 meets or exceeds 2000 mL/min/kg.
A) not fulfilled

Q) Does the compound Clc1cc2cnc(Nc3cnn(C4CC4)c3Cl)nc2cc1N1CCN(C2COC2)CC1 have recorded CL that is 2000 mL/min/kg or more?
A) not fulfilled

Q) Identify whether the reported CL of the following compound is 2000 mL/min/kg or greater: FC1CN(C2CCOC2)CCC1c1cc2nc(Nc3cnn(C4CC4(F)F)c3Cl)ncc2cc1Cl (centres undefined)
A) fulfilled

====

Field: fold induction at 96 h. Provide a value for each of the compounds that follow.
tested on: CYP1A1; assay: Toxicity in rat assessed as fold induction of CYP1A1 transcriptional activity in liver at 10 to 75 mg/kg, po bid administered for 4 days relative to control; assay type: organism-based; details: dose 10-75 mg/kg, time 4 day, read-out: FC
One number for each entry.

smiles_representation | fold induction at 96 h
Cc1c(Nc2ncc3cc(Cl)c(C4CCN([C@@H]5COC[C@@H]5O)CC4)cc3n2)cnn1[C@@H]1CC1(F)F | 3

Shifting focus to the compound that follows.
Q) Entry O[C@H]1COC[C@H]1N1CC[C@@H](c2cc3nc(Nc4cnn([C@@H]5CC5(F)F)c4Cl)ncc3cc2Cl)[C@H](F)C1 , system CYP1A1: what fold induction at 96 h was measured?
A) 3

====

assay: Intrinsic clearance in dog hepatocytes at 0.3 uM incubated for 90 mins by LC/MS/MS analysis; format: ADME, cell-based, Canis lupus familiaris, Hepatocyte; conditions: read-out: CLH
Task for the reader: assign each of the following compounds its reported CLint scaled at 0.3 µM.

compound | value_measured
CC(C)(O)Cn1ncc(Nc2ncc3cc(Cl)c(C4CCN(C5COC5)CC4)cc3n2)c1Cl | 150 mL/min/kg
FC1CN(C2COC2)CCC1c1cc2nc(Nc3cnn(C4CC4)c3Cl)ncc2cc1Cl (centres undefined) | 1300 mL/min/kg
Cc1c(Nc2ncc3cc(Cl)c(C4CCN(C5COC5)CC4)cc3n2)cnn1C1CC1 | 294 mL/min/kg

Here's the next entry for you.
Q) What does the data say about its CLint scaled at 0.3 µM? Entry: Cc1c(Nc2ncc3cc(Cl)c(C4CCN([C@@H]5COC[C@@H]5O)CC4)cc3n2)cnn1[C@@H]1CC1(F)F
A) 160 mL/min/kg

Hey, just so you know, these numbers are from ChEMBL document CHEMBL5042510.
